Source: the supplement of paper PMC10567573

B1: ZNF263 (parent)
chain: HLTRHQRTHTGEKPYKCTLCGENF

variants of: B1; assay: protein stability index of a GFP-peptide fusion (GPS, HEK-293T) (PSI 1-6); higher = more stable; details: c terminus: a fixed tail appended;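 note: lentivirally expressed fusions sorted by FACS into six bins by GFP to DsRed ratio, PSI derived from sequencing read proportions per bin multiplied by bin number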
Let's look at some variants and their measured protein stability index.
Output: the number by itself.

Before answering, review these 10 worked examples.
E22Q | 2.38
T10S | 3.12
T18S | 2.84
F24G | 3.67
L2E | 3.31
R7V | 2.96
F24M | 3.58
K13L | 2.03
L2S | 3.8
F24K | 3.12

Recorded result, K16A , protein stability index: 3.72
